The reported measurements were obtained from patent US12187728B2.

Kindly supply the reported pIC50 values for the records listed here.
SYSTEM TESTED: Human MTHFD2 (Homo sapiens)
Construct: residues 36-350 in Uniport ID P13995; His6 (N); made in house; host or cells: E. coli
PROTOCOL: MTHFD2 Activity Assay (dehydrogenase activity, diaphorase/resazurin coupled fluorescence)
Format: biochemical
EXPERIMENTAL CONDITIONS: inhibitory activity (IC50 and/or binding constant); 0.2 nM MTHFD2, 11 concentrations
pIC50: −log10 of the molar value.

Parameters: items (list). Returns: pIC50 for each item.
1. Cn1c(Nc2ccc(C(N)=O)nc2)nc2c1c(=O)n(Cc1cc3c(Cl)cccc3[nH]1)c(=O)n2C
2. Cn1c(N[C@H]2CC[C@@H](O)C2)nc2c1c(=O)n(Cc1ccc(C(F)(F)F)cc1)c(=O)n2C (single isomer, unassigned)
3. Cn1c(C2CCCCN2)nc2c1c(=O)n(Cc1cc3c(Cl)cccc3[nH]1)c(=O)n2C (stereo not drawn)
4. Cn1c(Nc2ccccc2C#N)nc2c1c(=O)n(Cc1ccc(Cl)c(Cl)c1)c(=O)n2C
5. Cn1c(=O)n(Cc2ccc(Cl)c(Cl)c2)c(=O)c2c1nc(NC1CCCC(C(=O)O)C1)n2CCO (stereo not drawn)

Output line:
6.00 to 8.00
5.30 to 6.00
6.00 to 8.00
5.30 to 6.00
6.00 to 8.00

Parameters: items (list). Returns: pIC50 for each item.
1. Cn1c(Nc2ccncc2)nc2c1c(=O)n(Cc1cc3cccc(F)c3[nH]1)c(=O)n2C
2. Cn1c(Cn2c(=O)c3c(nc(N4CC(O)C4)n3C)n(C)c2=O)cc2cc(Cl)ccc21
3. Cn1c(NC2COC2)nc2c1c(=O)n(Cc1ccc(Cl)c(Cl)c1)c(=O)n2C
4. COC(=O)c1cc(Cn2c(=O)c3c(nc(NCCCO)n3C)n(C)c2=O)ccc1Cl
5. Cn1c(Cn2c(=O)c3c(nc(-n4nccc4N)n3C)n(C)c2=O)cc2cc(Cl)ccc21
6. Cn1c(N[C@@H]2CCCOC2)nc2c1c(=O)n(Cc1ccc(Cl)c(Cl)c1)c(=O)n2C

Output line:
1: 6.00 to 8.00; 2: 6.00 to 8.00; 3: 6.00 to 8.00; 4: 5.30 to 6.00; 5: 6.00 to 8.00; 6: 6.00 to 8.00

Parameters: items (list). Returns: pIC50 for each item.
1. Cn1c(-n2cc(N)cn2)nc2c1c(=O)n(Cc1ccc(Cl)c(Cl)c1)c(=O)n2C
2. Cn1c(N[C@H]2CC[C@@H](C(=O)O)CC2)nc2c1c(=O)n(Cc1ccc(Cl)c(Cl)c1)c(=O)n2C
3. Cc1cccc2[nH]c(Cn3c(=O)c4c(nc(Nc5ccncc5)n4C)n(C)c3=O)c(C)c12

Output line:
1. 6.00 to 8.00
2. 6.00 to 8.00
3. 6.00 to 8.00

Input line: Requested field: pIC50. Item: Cn1c(N[C@H]2CCC[C@H](C(=O)O)C2)nc2c1c(=O)n(Cc1ccc(Cl)c(Cl)c1)c(=O)n2C (single isomer, unassigned) [Example 209]
Output line: 6.00 to 8.00

###

The reader will find pIC50 measurements below, all made with Human MTHFD2 (Homo sapiens, UniProt P13995).
Sequence (P13995 36-350): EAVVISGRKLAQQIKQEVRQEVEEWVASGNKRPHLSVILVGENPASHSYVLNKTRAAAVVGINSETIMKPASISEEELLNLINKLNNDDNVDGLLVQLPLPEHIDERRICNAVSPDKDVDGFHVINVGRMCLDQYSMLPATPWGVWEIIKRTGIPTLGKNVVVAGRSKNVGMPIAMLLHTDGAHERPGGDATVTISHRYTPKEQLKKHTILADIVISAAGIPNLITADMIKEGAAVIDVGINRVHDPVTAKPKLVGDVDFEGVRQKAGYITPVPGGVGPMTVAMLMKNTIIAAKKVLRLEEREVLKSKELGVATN
pIC50: −log10 of the molar value.

Cn1c(NC[C@H](O)CO)nc2c1c(=O)n(Cc1ccc(Cl)cc1)c(=O)n2C ... < 5.00
Cn1c(Nc2ccnc(CCC(=O)O)c2)nc2c1c(=O)n(Cc1ccc(Cl)c(Cl)c1)c(=O)n2C ... 6.00 to 8.00
COCCNc1nc2c(c(=O)n(Cc3ccc(Cl)c(Cl)c3)c(=O)n2C)n1C ... 5.30 to 6.00
C[C@H](CCO)Nc1nc2c(c(=O)n(Cc3ccc(Cl)c(Cl)c3)c(=O)n2C)n1C ... 6.00 to 8.00
Cn1c(Nc2ccncc2)nc2c1c(=O)n(Cc1ccc(Cl)c(Cl)c1)c(=O)n2C ... 6.00 to 8.00
Cn1c(Nc2ccc(C#N)nc2)nc2c1c(=O)n(Cc1cc3c(Cl)cccc3[nH]1)c(=O)n2C ... 6.00 to 8.00

Parameters: items (list). Returns: pIC50 for each item.
1. Cn1c([C@@H](N)Cc2ccncc2)nc2c1c(=O)n(Cc1cc3c(Cl)cccc3[nH]1)c(=O)n2C
2. Cn1c(Nc2cccc([C@H]3C[C@H]3C(=O)O)n2)nc2c1c(=O)n(Cc1ccc(Cl)c(Cl)c1)c(=O)n2C (racemic)
3. Cn1c(Nc2ccc(C(N)=O)cc2)nc2c1c(=O)n(Cc1ccc(Cl)c(Cl)c1)c(=O)n2C

Output line:
1: 6.00 to 8.00; 2: 6.00 to 8.00; 3: 6.00 to 8.00

Parameters: items (list). Returns: pIC50 for each item.
1. Cn1c(N[C@H]2C[C@H](CO)C2)nc2c1c(=O)n(Cc1ccc(Cl)c(Cl)c1)c(=O)n2C
2. Cn1c(Nc2cccc(C3CCC(O)C3)n2)nc2c1c(=O)n(Cc1cc3c(Cl)cccc3[nH]1)c(=O)n2C (stereo not drawn)

Output line:
1: 6.00 to 8.00; 2: 6.00 to 8.00

Parameters: items (list). Returns: pIC50 for each item.
1. Cc1ccc2[nH]c(Cn3c(=O)c4c(nc(N5CC(O)C5)n4C)n(C)c3=O)cc2c1
2. Cn1c(Nc2ccncc2)nc2c1c(=O)n(Cc1cc3ccncc3[nH]1)c(=O)n2C
3. Cn1c(N[C@H](CO)CC2CCCCC2)nc2c1c(=O)n(Cc1ccc(C(F)(F)F)cc1)c(=O)n2C
4. CCN(CC)C(=O)CCc1nccc(Nc2nc3c(c(=O)n(Cc4cc5c(Cl)cccc5[nH]4)c(=O)n3C)n2C)n1

Output line:
["5.30 to 6.00", "5.00 to 5.30", "< 5.00", "6.00 to 8.00"]
